assay system: MMP-2 (Homo sapiens, UniProt P08253)
Sequence (P08253 110-660): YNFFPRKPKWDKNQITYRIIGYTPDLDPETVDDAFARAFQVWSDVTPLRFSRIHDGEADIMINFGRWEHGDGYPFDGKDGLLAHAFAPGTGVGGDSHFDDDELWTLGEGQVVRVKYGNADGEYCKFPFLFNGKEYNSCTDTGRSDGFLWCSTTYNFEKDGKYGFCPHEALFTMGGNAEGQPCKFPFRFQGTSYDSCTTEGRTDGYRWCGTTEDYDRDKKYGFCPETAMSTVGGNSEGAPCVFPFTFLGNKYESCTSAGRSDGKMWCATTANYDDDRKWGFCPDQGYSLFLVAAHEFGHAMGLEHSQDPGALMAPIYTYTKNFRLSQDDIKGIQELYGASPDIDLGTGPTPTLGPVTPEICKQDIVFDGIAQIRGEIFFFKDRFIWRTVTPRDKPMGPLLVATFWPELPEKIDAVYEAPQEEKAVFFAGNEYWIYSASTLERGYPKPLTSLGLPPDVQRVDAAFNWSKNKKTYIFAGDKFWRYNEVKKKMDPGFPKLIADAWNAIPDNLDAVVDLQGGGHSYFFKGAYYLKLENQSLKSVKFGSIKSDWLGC
The following compounds are shown together with reported pKi values.
// scale note: pKi = -log10(conc_M); give the bare number

Recorded pKi, per entry:
> print(dat)
                                   compound  outcome.measure  value.measured
1  CC/C=C/C=C/C=C/C=C\CCCCCCCC(=O)O [acide cis-parinarique]              pKi            5.10
2  CCCCCCCC/C=C/CCCCCCCC(=O)O [acide élaïdique]              pKi            5.37

In: Give the reported value of pKi for this record: CC/C=C/C=C/C=C/C=C/CCCCCCCC(=O)O [acide trans-parinarique]
Out: 4.62
